From: PubChem BioAssay (NCATS)

Test: qHTS for Inhibitors of Plasmodium falciparum (7G8) proliferation (AID 504316); further: nearly all actives have a fitted effect of over 65% in size
Settings: P. falciparum 7G8 in erythrocytes, SYBR Green DNA, 72 h; series mostly up to 6.7 µM
Records with an inconclusive call do not appear. Activity calls are given as the source filed them. The call rests on the fitted dose curve; in most records, active means well fitted inhibition curve with a large enough effect; inconclusive means small, poorly fitted or top-dose-only effect; inactive means flat fitted curve, though single readings scatter.
Bench note: report the call from active, inactive

## Input Give the logged outcome of this assay for the following compound: O=C(C=Cc1ccccc1)c1ccccc1O
## Output inactive

## Input Returns: the outcome recorded for COC(=O)CC1c2ccccc2C(Cc2ccc(OC)cc2)=C(C)N1C(=O)OC (centres undefined) in this assay.
## Output inactive

## Input What outcome does the record of this test show for COC(=O)N1C(C)=Cc2ccccc2C1CC(C)=O (centres undefined) ?
## Output inactive

## Input Recorded call for C[C@@H]1CC[C@H]2C(=O)O[C@H](COc3ccc(C(C)(C)C)cc3)CN2[C@@H]1c1ccc(Br)cc1 ?
## Output inactive

## Input Outcome logged for CCN1C(=O)NC(c2cccc(F)c2)C(C(=O)OC)=C1C (centres undefined) in this assay:
## Output inactive

## Input Identify the outcome logged in this assay for the compound shown: CC(=O)OC[C@H]1O[C@H](C#CC(C)(C)C)C=C[C@H]1OC(C)=O
## Output inactive

## Input Recorded test call requested for CC(=O)OC[C@H]1O[C@H](CC=NO[C@H](C)CN2CCCCc3nc(C)c(C)cc32)C=C[C@@H]1OC(C)=O
## Output inactive

## Input Please state the recorded outcome for this compound: CCOC(=O)CN1C(=O)NC(c2cccc(F)c2)C(C(=O)OC)=C1C (centres undefined)
## Output inactive

## Input What outcome does the record of this test show for CC(=O)OC[C@H]1O[C@H](CC=NOC[C@@H](C)[C@H](OCc2ccccc2)C(C)C)C=C[C@@H]1OC(C)=O ?
## Output inactive

## Input So what was the verdict on C=CCN1C(=O)CC[C@@]23C1=NC(C(=O)OC)=C(C(=O)OC)[C@@H]2N(C)c1ccccc13 in this test?
## Output inactive

## Input Just curious, what result did COc1cc2c(c(OC)c1OC)CC(C)=C(C)CC2NC(=O)C(F)(F)F (centres undefined) get here?
## Output inactive

## Input Each compound tested received a call. Report the one for COC(=O)N[C@H](CC(C)=O)c1ccccc1 .
## Output inactive

## Input What did the test return for COc1ccc(COC(=O)NN=C2C[C@@H](O)[C@@H](O)[C@@H]3[C@H]4C(=O)N([C@@H](C)c5ccccc5)C(=O)[C@@H]4CC[C@H]23)cc1 ?
## Output inactive

## Input For this compound, state the assay outcome: Cc1ccc(C#C[C@@H]2C=C[C@H](Oc3ccc4c(c3)OCO4)[C@@H](CO)O2)c(C)c1
## Output inactive

## Input Test call, this compound: N#Cc1ccc2c(c1)C[C@]1(CCCCN3C(=O)c4ccccc4C3=O)Oc3c(c(=O)oc4ccc(F)cc34)[C@@H]2O1
## Output active

## Input Test call for this compound, please: COc1ccc2c(c1)[C@@]1(OCCC=C[C@@H]1C)C(=O)N2CC1CC1
## Output inactive

## Input Hi team, can someone confirm the assay call for COCCN1C(=O)NC(CCc2ccccc2)C(C(=O)OC)=C1C (centres undefined) ?
## Output inactive

## Input In this assay, the call recorded for COC(=O)CCCC1=CC2=CC(=O)C(C)(OC(=O)c3cccs3)C(=O)C2=CN1C1CC1 (centres undefined) was what?
## Output inactive

## Input Give the logged outcome of this assay for the following compound: C=CC[C@@](C(C)=O)(C(=O)OC)[C@@H](NC(=O)OC(C)(C)C)c1ccccc1
## Output inactive
